system: SK-MEL-2 melanoma; experiment: NCI-60 one-dose screen, 48 h (100 = growth as untreated, 0 = no growth, -100 = all killed); conditions: 10 µM
This is part of a sample that, as a whole, favours compounds with a hit. Of some 83,000 tested, about 20% had one in any assay.
Listing of entries alongside the reported growth.
property measured: growth (%)

1) CCOC(=O)[C@]1(Br)CC[C@@]1(Br)C(=O)OCC :: 91.7
2) CCC(C)(c1ccc(O)c(C)c1)c1ccc(O)c(C)c1 :: 94.4
3) Nc1nc(N)c2cc(Sc3ccc4ccccc4c3)ccc2n1 :: 75.3
4) NCc1c(O)ccc2ccccc12 :: 98.2
5) N#CC(=C1C=CC(=NO)C=C1)c1ccccc1 :: 41.1
6) O=S(=O)(c1cc(Cl)ccc1O)c1cc(Cl)ccc1O :: 64
7) O=c1[nH]cc(/C=N\Nc2ccccc2)c(=O)[nH]1 :: 46.1

Hello, the source for this data is PubChem BioAssay (NCI), in case you need it.
